Collected growth values appear next to each entry.
- Tested on: NCI-H460 lung
- assay-notes: NCI-60 one-dose screen, 48 h (100 = growth as untreated, 0 = no growth, -100 = all killed)
- stated-conditions: 10 µM unless noted
This is part of a sample that, as a whole, favours compounds with a hit. Of some 83,000 tested, about 20% had one in any assay. Active and inactive are the calls of the source. The calls were made as follows: active = growth percent below 10; inactive = the rest.

chemical-structure	growth
O=C(CCCCCCCCC(=O)Nc1cccc(C2=NCCN2)c1)Nc1cccc(C2=NCCN2)c1	93.6% (inactive)
Nc1c(C(=O)Nc2cccc3ccccc23)sc2nc3c(cc12)CCCCCC3	11.2% (inactive)
C[C@H](Oc1cc(-c2cnn(C3CCNCC3)c2)cnc1N)c1c(Cl)ccc(F)c1Cl	57.9% (inactive)
CC(=O)c1ccc(NC(=O)CSc2nnc(-c3cc(-c4ccc(C)cc4)nc4ccccc34)o2)cc1	10.5% (inactive)
Cc1nc(C)c(C)nc1C	109% (inactive)

---

Collected growth values appear next to each entry.
- Tested on: SK-MEL-2 melanoma
- assay-notes: NCI-60 one-dose screen, 48 h (100 = growth as untreated, 0 = no growth, -100 = all killed)
- stated-conditions: 10 µM unless noted
This is part of a sample that, as a whole, favours compounds with a hit. Of some 83,000 tested, about 20% had one in any assay.

chemical-structure	tested-target	unit-text	growth
CCOC(=O)NCCc1nc2c([nH]1)c(=O)n(C)c(=O)n2C	SK-MEL-2 melanoma	%	101
NC(=O)c1ccc2nc3c(n2c1)C(=O)C(=O)c1ccccc1-3	SK-MEL-2 melanoma	%	-71.2
O=c1[nH]nc(-c2ccccc2)c2sc(NC(=S)Nc3ccc(Cl)cc3)nc12	SK-MEL-2 melanoma	%	85.5
CCCCc1ccc(N=Nc2ccc(OCC[N+](C)(C)C)cc2)cc1	SK-MEL-2 melanoma	%	93.6
C#Cc1ccccc1NC(=O)c1sc2nc3c(cc2c1N)CCCCCC3	SK-MEL-2 melanoma	%	85.4
COc1ccc2nc3c(n2c1)C(=O)C(=O)c1ccccc1-3	SK-MEL-2 melanoma	%	-74.7
CC(C)(C)c1ccc2oc(=O)n(SC(Cl)(Cl)Cl)c2c1	SK-MEL-2 melanoma	%	93.9
Cc1nccc2c3ccc(OCc4cn(-c5ccc(Br)cc5)nn4)cc3n(CC(C)C)c12	SK-MEL-2 melanoma	%	53
C=C1C(=O)O[C@H]2[C@H]1CC/C(COC(=O)c1c[nH]c3ccccc13)=C\CC[C@@]1(C)O[C@@H]21	SK-MEL-2 melanoma	%	-41.3
C(=C\c1cn(-c2ccccc2)nc1-c1ccccc1)/c1nnc(-c2c[nH]c3ccccc23)o1	SK-MEL-2 melanoma	%	86

---

- System: PC-3 prostate
- assay-notes: NCI-60 one-dose screen, 48 h
- stated-conditions: 10 µM unless noted
About 83,000 compounds went through this panel and 20% of them were active in at least one assay; those are over-represented in the sample as a whole. Activity calls are given as the source filed them. The calls were made as follows: active = growth percent below 10; inactive = the rest.
Possible outcomes: true (1) = active, false (0) = inactive

molecule	tested-target	category-label
Cc1cc(C)n(-c2nc(-c3cccs3)c(C#N)c(=O)[nH]2)n1	PC-3 prostate	false (0)
CC(C)NS(=O)(=O)c1cccc(-c2ccc3c4c(n(CCCN(C)C)c(=O)c3c2)-c2ccccc2C4=O)c1	PC-3 prostate	false (0)
CCCn1c2cc(OCc3cn(-c4ccc(Cl)cc4)nn3)ccc2c2ccnc(C)c21	PC-3 prostate	false (0)
O=Cc1[nH]c(Sc2ccccc2)c2ccccc12	PC-3 prostate	false (0)
O=C1Nc2ccccc2C12C=C(c1ccccc1)Nc1c2c(-c2ccccc2)nn1-c1ccccc1 (stereo unspecified)	PC-3 prostate	false (0)
COc1ccc2c(c1)Oc1nc(N)c(C#N)c(N)c1C2Sc1ccc(SC)cc1 (stereo unspecified)	PC-3 prostate	false (0)
CCCCn1c(=O)c(/C=C/C(=O)/C=C/c2cc3ccccc3n(CCCC)c2=O)cc2ccccc21	PC-3 prostate	true (1)
CCOCCc1c(O)nc(SC)[nH]c1=O	PC-3 prostate	false (0)
COc1ccc2c(c1)Oc1nc(N)c(C#N)c(N)c1C2Sc1ccc(O)cc1 (stereo unspecified)	PC-3 prostate	false (0)
O=CN1N=C(c2ccc(Cl)cc2)CC1c1cccc(Nc2ccnc3cc(C(F)(F)F)ccc23)c1 (stereo unspecified)	PC-3 prostate	false (0)
Cc1cccc(NC(=O)c2sc3nc4c(cc3c2N)CN(Cc2ccccc2)CC4)c1C	PC-3 prostate	false (0)
COc1ccc(-c2cc(-c3nnc(SCC(=O)Nc4ccc(C(C)=O)cc4)o3)c3ccccc3n2)cc1	PC-3 prostate	true (1)
O=C1CCc2ccccc2N1	PC-3 prostate	false (0)
CCOC(=O)/C(=C/c1c(-c2ccccc2)[nH]c2ccccc12)C(=O)c1ccc(Cl)cc1	PC-3 prostate	false (0)
CCSc1nc(Cl)c(C#N)c(-c2ccc(F)cc2)n1	PC-3 prostate	false (0)
Cc1cc(C)cc(Nc2nccc(-c3c(-c4ccc(F)cc4)ncn3C3CCNCC3)n2)c1	PC-3 prostate	false (0)
CC(=O)c1ccc(NC(=O)CSc2nnc(-c3cc(-c4ccc(C)cc4)nc4ccccc34)o2)cc1	PC-3 prostate	false (0)
CC(C)CSc1nc(Nc2ccccc2)c(C#N)c(-c2ccc(F)cc2)n1	PC-3 prostate	false (0)
COc1ccc2nc3nc4ccc[nH]c4cc3c2c1	PC-3 prostate	false (0)
CC1CCCN(CCCCCOc2ccc3oc4ccccc4c(=O)c3c2)C1 (stereo unspecified)	PC-3 prostate	false (0)
CC(C)(C)c1nc2c(s1)c1nc(N)ncc1c1ccc(NS(=O)(=O)c3c(F)cccc3F)c(F)c12	PC-3 prostate	false (0)

---

- Tested on: SF-268 CNS
- assay-notes: NCI-60 one-dose screen, 48 h (100 = growth as untreated, 0 = no growth, -100 = all killed)
- stated-conditions: 10 µM unless noted
- Description: Cells are grown in 96 well plates and exposed to the test compound for 48 hours. Compounds are tested at a single concentration, which is 10^-5 M for most compounds. The reported endpoint is percent growth (GI% or GIPRCNT), where numbers from 0 - 100% represent growth inhibition, and numbers from -100% - 0 represent cell death. For example, a value of 40 represents 60% growth inhibition. A value of 0 means no net growth occurred over the course of the experiment. […]
About 83,000 compounds went through this panel and 20% of them were active in at least one assay; those are over-represented in the sample as a whole.
Label T when growth is strictly below 70%; at or above that, label F.

molecule	category-label
Cn1c2c(c3ccc(-c4ccn[nH]4)cc3c1=O)C(=O)c1ccccc1-2	T
CCOC(=O)c1c(C)nc2c(c1N)CC(=O)N2CCc1ccccc1	T
Cc1nnc(/N=C2\NC(=O)/C(=C/c3ccc(N(C)C)cc3)S2)s1	F
CCCn1c2cc(OCc3cn(-c4ccc(Br)cc4)nn3)ccc2c2ccnc(C)c21	F
Nc1c(C(=O)Nc2ccccc2Cl)sc2nc3c(cc12)CN(Cc1ccccc1)CC3	F
CC(=O)ON1CCCC(P(=O)(OCOC(=O)C(C)(C)C)OCOC(=O)C(C)(C)C)C1=O (stereo not given)	T
CCOCc1nc2ccccc2c(=O)[nH]1	F
N#Cc1c(-c2ccc(F)cc2)nc(N/N=C/c2cccc(O)c2)nc1N1CCOCC1	F
C[C@H](Oc1cc(-c2cnn(C3CCNCC3)c2)cnc1N)c1c(Cl)ccc(F)c1Cl	T
COc1ccc(/C=C/C(=O)C(CC2CCC2)C(=O)/C=C/c2ccc(OC)c(OC)c2)cc1OC	T

---

- System: HT29 colon
- assay-notes: NCI-60 one-dose screen, 48 h (100 = growth as untreated, 0 = no growth, -100 = all killed)
- stated-conditions: 10 µM unless noted
This is part of a sample that, as a whole, favours compounds with a hit. Of some 83,000 tested, about 20% had one in any assay.
experimental-readout: growth (%)

compound	tested-target	experimental-readout	unit-text	result-value
C=C1C(=O)O[C@H]2[C@H]1CC/C(COC(=O)CCCCCCC(=O)OC/C1=C/CC[C@@]3(C)O[C@H]3[C@H]3OC(=O)C(=C)[C@@H]3CC1)=C\CC[C@@]1(C)O[C@@H]21	HT29 colon	growth	%	3.75
COc1ccc2nc(-c3ccc(OC)c(OC)c3)cc(-c3nnc(SCC(=O)Nc4ccc(/C(C)=N\O)cc4)n3-c3ccccc3)c2c1	HT29 colon	growth	%	89.2
O=C1c2ccccc2C(=O)c2c1oc1c2c(=O)[nH]c2ccc(Cl)cc21	HT29 colon	growth	%	66.4
CCOCc1cc(C(C)(C)C)ccc1O	HT29 colon	growth	%	94.6
C=C1C(=O)O[C@H]2[C@H]1CC/C(COC(=O)c1cn(C)c3ccccc13)=C\CC[C@@]1(C)O[C@@H]21	HT29 colon	growth	%	-77.2
O=C1c2ccccc2C(=O)c2c1oc1c2c(=O)[nH]c2ccccc21	HT29 colon	growth	%	103
CCOC(=O)c1c(C)nc2c(c1N)CC(=O)N2CCc1ccccc1	HT29 colon	growth	%	6.02
Cc1cc(Cl)cc(CN(Cc2ccccc2)Cc2c(O)ccc3ccccc23)c1O	HT29 colon	growth	%	98.5
CCOC(=O)NC(Cc1ccccc1)c1ccccc1 (stereo unspecified)	HT29 colon	growth	%	97.5
CCSc1nc(Cl)c(C#N)c(-c2ccc(F)cc2)n1	HT29 colon	growth	%	92.6
COC(=O)c1nc(-c2ccccc2)oc1S(=O)(=O)n1nc(C)cc1N	HT29 colon	growth	%	17.5
CC(C)(C)CC(C)(C)Cc1ccc(OCCOCC[N+](C)(C)Cc2ccccc2)cc1	HT29 colon	growth	%	9.89
CCOC(=O)/C(=C/c1c(-c2ccccc2)[nH]c2ccccc12)C(=O)c1ccc(Cl)cc1	HT29 colon	growth	%	44
O=C(CCc1nnco1)c1nc2ccc([N+](=O)[O-])cc2[nH]1	HT29 colon	growth	%	103
COc1ccc(-c2nc(C#N)c(NCC(c3ccco3)N3CCCC3)o2)cc1 (stereo unspecified)	HT29 colon	growth	%	10.7
O=C(Nc1nc(-c2ccccc2Cl)cs1)c1cc(-c2ccc(Br)cc2)nc2ccccc12	HT29 colon	growth	%	37.4
COc1ccc(N(C)c2nc(Cl)nc3ccn(C)c23)cc1	HT29 colon	growth	%	-2.47
Cc1nc2sc(C(=O)Nc3ccccc3Cl)c(N)c2cc1C(C)O (stereo unspecified)	HT29 colon	growth	%	34.3
CC(=O)Oc1ccc(O)cc1	HT29 colon	growth	%	87.3
CCCCOc1nc2ccc(C)cc2cc1/C=C/C(=O)/C=C/c1ccc2c(c1)OCO2	HT29 colon	growth	%	63.6
O=C1CC23OC(C(O)c4ccccc4N12)C1C(c2ccccc2)=NOC13 (stereo unspecified)	HT29 colon	growth	%	13.9
